- Tested target: human TYK2 (JH2domain-pseudokinase) (Homo sapiens (Human), UniProt P29597)
- Sequence (P29597 556-888): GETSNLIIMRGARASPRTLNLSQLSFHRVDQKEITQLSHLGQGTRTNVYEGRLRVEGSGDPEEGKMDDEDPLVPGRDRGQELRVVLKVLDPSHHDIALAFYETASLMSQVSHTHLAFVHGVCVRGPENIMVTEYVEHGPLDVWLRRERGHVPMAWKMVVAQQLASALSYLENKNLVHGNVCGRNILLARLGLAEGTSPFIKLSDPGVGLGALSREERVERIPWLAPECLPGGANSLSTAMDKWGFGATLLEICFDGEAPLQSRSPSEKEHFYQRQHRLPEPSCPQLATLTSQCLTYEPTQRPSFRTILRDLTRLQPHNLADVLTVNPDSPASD
- Method description: TYK2 JH2 Domain Binding Assay (KINOMEscan)
Property name: Kd

Task: # query: Kd of entry CNc1cc(Nc2cccn(-c3cccc(F)c3)c2=O)nc2c(C(=O)NCC(C)CO)cnn12 (stereo not shown) [I-947]
Output: < 200 pM

Task: // same read-out, input: CNc1cc(-c2cn(CCN3CCOCC3)c3ncccc23)nc2c(C(=O)N[C@@H]3CC[C@@H]3O)cnn12 [I-678]
Output: 200 to 1000 pM

Task: // same read-out, input: CNc1cc(-c2cn([C@H]3CCCOC3)c3ncccc23)nc2c(C(=O)N[C@H]3COC[C@H]3O)cnn12 (mixture of isomers) [I-1251]
Output: 1000 to 10000 pM

Task: // same read-out, input: CNc1cc(Nc2cc(F)cnc2OCCOC)nc2c(C(=O)N[C@H]3C[C@H]3F)cnn12 [I-285]
Output: < 200 pM
